Source listed as PubChem BioAssay AID1745844.

system: rodent lifetime carcinogenesis bioassay, tumor incidence TD50; test: carcinogenic potency in animals, long-term in vivo studies, CPDB compilation (AID 1745844); conditions: mouse; strain Swiss albino; females; in drinking water; site: gall bladder; lesion: several types; types named in the paper; dosed 75 weeks; study length 79 weeks
measurement type: TD50

# input GET /values?readout=TD50&item= `CCCN(N)C=O`
# output 444 mg/kg/day

====

tested on: rodent lifetime carcinogenesis bioassay, tumor incidence TD50; assay: carcinogenic potency in animals, long-term in vivo studies, CPDB compilation (AID 1745844); settings: rat; strain Sprague-Dawley; females; in feed; site: liver; lesion: bile duct adenoma; dosed 46 weeks; study length 66 weeks
measurement type: TD50 (mg/kg/day)
Number in mg/kg/day, nothing else.

# input Reported TD50, compound `O=[N+]([O-])c1ccc(-c2nc(NCCO)c3ccccc3n2)s1` : ____
# output 132

====

tested on: rodent lifetime carcinogenesis bioassay, tumor incidence TD50; assay: carcinogenic potency in animals, long-term in vivo studies, CPDB compilation (AID 1745844); settings: mouse; strain B6C3F1; males; by gavage; site: all sites; lesion: malignant lymphoma, histiocytic type + malignant lymphoma, mixed type + malignant lymphoma, lymphocytic type; dosed 103 weeks; study length 104 weeks
measurement type: TD50 (mg/kg/day)
Quick reminder: number only, in mg/kg/day, skip the unit.

# input # TD50 lookup, item `CC1=CC(=O)CC(C)(C)C1`
# output 203

====

test system: rodent lifetime carcinogenesis bioassay, tumor incidence TD50; test: carcinogenic potency in animals, long-term in vivo studies, CPDB compilation (AID 1745844); details: rat; strain Wistar albino; females; in feed; site: liver; lesion: hepatoma, benign; dosed 104 weeks; study length 104 weeks
measurement type: TD50 (mg/kg/day)
Could you give me the number in mg/kg/day? Just the number is fine.

# input Given `CC(C)(C)NC[C@H](O)COc1cccc2c1CCCC2=O` , state its recorded TD50.
# output 2360

====

system: rodent lifetime carcinogenesis bioassay, tumor incidence TD50; assay: carcinogenic potency in animals, long-term in vivo studies, CPDB compilation (AID 1745844); conditions: mouse; strain B6C3F1; males; inhaled; site: any site (literature study); lesion: several types; types named in the paper; dosed 26 weeks; study length 104 weeks
measurement type: TD50

# input So what's the measured TD50 for this one? `C=CC=C`
# output 12.5 mg/kg/day

====

system: rodent lifetime carcinogenesis bioassay, tumor incidence TD50; assay: carcinogenic potency in animals, long-term in vivo studies, CPDB compilation (AID 1745844); settings: rat; strain Fischer 344; females; in feed; site: mammary gland; lesion: adenoma, NOS + fibroadenoma; dosed 104 weeks; study length 104 weeks
measurement type: TD50

# input Hi! What's the reported TD50 for `Cc1ccccc1N` on rodent lifetime carcinogenesis bioassay, tumor incidence TD50?
# output 119 mg/kg/day

====

tested on: rodent lifetime carcinogenesis bioassay, tumor incidence TD50; assay: carcinogenic potency in animals, long-term in vivo studies, CPDB compilation (AID 1745844); settings: rat; strain Wistar-random; males; in feed; site: urinary bladder; lesion: transitional-cell papilloma; dosed 121 weeks; study length 121 weeks
measurement type: TD50

# input What value of TD50 has been recorded for this entry: `O=C(O)O`
# output 17800 mg/kg/day

====

tested on: rodent lifetime carcinogenesis bioassay, tumor incidence TD50; assay: carcinogenic potency in animals, long-term in vivo studies, CPDB compilation (AID 1745844); conditions: rat; strain Wistar; males; inhaled; site: brain; lesion: neuroblastoma; dosed 52 weeks; study length 125 weeks
measurement type: TD50

# input Which measured TD50 value corresponds to `C=CCl` ?
# output 4140 mg/kg/day

====

test system: rodent lifetime carcinogenesis bioassay, tumor incidence TD50; assay: carcinogenic potency in animals, long-term in vivo studies, CPDB compilation (AID 1745844); conditions: rat; strain Holtzman albino (Sprague-Dawley derived); females; in feed; site: kidney; lesion: adenoma; dosed 44 weeks; study length 60 weeks
measurement type: TD50

# input Find the measured TD50: item `O=CNNc1nc(-c2ccc([N+](=O)[O-])o2)cs1` , target or system rodent lifetime carcinogenesis bioassay, tumor incidence TD50.
# output 17.6 mg/kg/day

====

tested on: rodent lifetime carcinogenesis bioassay, tumor incidence TD50; assay: carcinogenic potency in animals, long-term in vivo studies, CPDB compilation (AID 1745844); settings: mouse; strain CBA; males; by gavage; site: liver; lesion: hepatoma; dosed 26 weeks; study length 104 weeks
measurement type: TD50

# input I'd like to know its TD50. The compound in question is `Nc1ccc(-c2ccc(F)cc2)cc1`
# output 1.19 mg/kg/day

====

tested on: rodent lifetime carcinogenesis bioassay, tumor incidence TD50; assay: carcinogenic potency in animals, long-term in vivo studies, CPDB compilation (AID 1745844); conditions: mouse; strain B6C3F1; females; oral dosing; site: liver; lesion: hepatoma; dosed 76 weeks; study length 76 weeks
Active and inactive are the calls of the source. The rule behind the calls is not given here.
measurement type: carcinogen call

# input What measured carcinogen call is associated with CC(Oc1cc(Cl)ccc1Cl)C(=O)O (stereo not drawn) on rodent lifetime carcinogenesis bioassay, tumor incidence TD50?
# output negative (inactive)

# input Also check `S=C([S-])NCCNC(=S)[S-].[Zn+2]`
# output negative (inactive)

# input Then `O=C(O)Cc1c[nH]c2ccccc12` ?
# output negative (inactive)

====

tested on: rodent lifetime carcinogenesis bioassay, tumor incidence TD50; assay: carcinogenic potency in animals, long-term in vivo studies, CPDB compilation (AID 1745844); details: rat; strain Sprague-Dawley; males; inhaled; site: kidney; lesion: nephroblastoma; dosed 52 weeks; study length 131 weeks
measurement type: TD50

# input Find the recorded TD50 belonging to `C=CCl` and report it.
# output 2960 mg/kg/day

====

system: rodent lifetime carcinogenesis bioassay, tumor incidence TD50; test: carcinogenic potency in animals, long-term in vivo studies, CPDB compilation (AID 1745844); details: rat; strain Charles River CD1; males; in feed; site: urinary bladder; lesion: several types; types named in the paper; dosed 104 weeks; study length 104 weeks
measurement type: TD50

# input What value of TD50 has been reported for the following compound? `CCOP(=O)=O.CCOP(=O)=O.CCOP(=O)=O.[Al+3]`
# output 3660 mg/kg/day

====

test system: rodent lifetime carcinogenesis bioassay, tumor incidence TD50; experiment: carcinogenic potency in animals, long-term in vivo studies, CPDB compilation (AID 1745844); details: mouse; strain B6C3F1; females; in drinking water; site: liver; lesion: hepatocellular carcinoma; dosed 75 weeks; study length 86 weeks
measurement type: TD50 (mg/kg/day)
Number only, in mg/kg/day; omit the unit.

# input Which TD50 value belongs to `Cc1c(N(C)CS(=O)(=O)O)c(=O)n(-c2ccccc2)n1C` ?
# output 7120

====

Below, each of the compounds is paired with its reported TD50 value.
tested on: rodent lifetime carcinogenesis bioassay, tumor incidence TD50; assay: carcinogenic potency in animals, long-term in vivo studies, CPDB compilation (AID 1745844); conditions: rat; strain Wistar; males; inhaled; site: lung; lesion: adenocarcinoma; dosed 78 weeks; study length 130 weeks
Just the number in mg/kg/day, nothing appended.

# input Quick check: TD50 on rodent lifetime carcinogenesis bioassay, tumor incidence TD50, item `[O]=[Cr](=[O])([OH])[O][Cr](=[O])(=[O])[OH]` ?
# output 7.07

Please look at the following compound next.
# input Please provide the recorded TD50 for `[Cl][Cd][Cl]` , tested on rodent lifetime carcinogenesis bioassay, tumor incidence TD50.
# output 0.00924

====

system: rodent lifetime carcinogenesis bioassay, tumor incidence TD50; assay: carcinogenic potency in animals, long-term in vivo studies, CPDB compilation (AID 1745844); settings: rat; strain Wistar; males; in drinking water; site: thyroid gland; lesion: follicular-cell carcinoma; dosed 104 weeks; study length 104 weeks
measurement type: TD50

# input GET /values?readout=TD50&item= O=C1OC(O)C(C(Cl)Cl)=C1Cl (stereo unspecified)
# output 3.25 mg/kg/day

====

tested on: rodent lifetime carcinogenesis bioassay, tumor incidence TD50; assay: carcinogenic potency in animals, long-term in vivo studies, CPDB compilation (AID 1745844); settings: mouse; strain C3HeB/FeJ; females; in feed; site: mammary gland; lesion: adenocarcinoma; dosed 78 weeks; study length 78 weeks
measurement type: TD50 (mg/kg/day)
Please give a number only; it is taken to be in mg/kg/day.

# input Could you share which TD50 value was measured for `CC/C(=C(/CC)c1ccc(O)cc1)c1ccc(O)cc1` ?
# output 0.295

====

tested on: rodent lifetime carcinogenesis bioassay, tumor incidence TD50; assay: carcinogenic potency in animals, long-term in vivo studies, CPDB compilation (AID 1745844); conditions: rat; strain Fischer 344; females; in drinking water; site: skin; lesion: squamous-cell papilloma; dosed 60 weeks; study length 60 weeks
measurement type: TD50 (mg/kg/day)
I only need the number, in mg/kg/day, no unit after it.

# input Need TD50 of `Cc1cc(-c2ccc(N)c(C)c2)ccc1N` , thanks.
# output 7.06

====

// reported TD50 per item
test system: rodent lifetime carcinogenesis bioassay, tumor incidence TD50; assay: carcinogenic potency in animals, long-term in vivo studies, CPDB compilation (AID 1745844); conditions: rat; strain Fischer 344; males; in feed; site: liver; lesion: hepatocellular adenoma + hepatocellular carcinoma + neoplastic nodule; dosed 103 weeks; study length 105 weeks
Write the value in mg/kg/day as a bare number.

The cases that follow already have their TD50 on record.
# input So what does the record say about TD50 for `O=C1CCCCCN1` ?
# output 5690

# input And then `O=C1CN(N=Cc2ccc([N+](=O)[O-])o2)C(=O)N1` , what is it?
# output 332

# input Moving on to `Cc1noc(NS(=O)(=O)c2ccc(N)cc2)c1C`
# output 26300

# input Could you do the same for CC1CCC(C(C)C)C(O)C1 (stereo unspecified) , please?
# output 5690

# input Please do the same for `CC` as well.
# output 33500

# input Again, but for `CC(=O)c1ccc(S(=O)(=O)NC(=O)NC2CCCCC2)cc1`
# output 16600

# input `CNC(=O)ON=CC(C)(C)SC` ?
# output 1.33

# input What about CO[C@H]1[C@@H](O)[C@@H](CO)OC(OC2C3CO[C@H]2[C@H](O)C(C)O3)[C@@H]1O (stereo partly specified) ?
# output 25900

Others:
# input Which TD50 value is on record for `CCOC(=O)/C(Cl)=N/Nc1ccccc1` ?
# output 516000

# input // same read-out, input: `CC1=NN(c2ccccc2)C(=O)C1`
# output 3700

# input Now the compound `CCN=c1cc2oc3cc(NCC)c(C)cc3c(-c3ccccc3C(=O)OCC)c-2cc1C`
# output 553
